Assay: Ascending multiple dose pharmacokinetics of enteric coated capsules in healthy subjects
Type: in vivo, human
Conditions: human, plasma, po, 150 mg, healthy subjects, multiple oral doses (q12 h) 150 mg, day 14; read-out: Cmax (Geom. Mean)
MEASURE: Cmax (ng/mL)
Number in ng/mL, nothing else.

Dear colleague, I am looking for the recorded Cmax of the following molecule: Cl.c1cc2c3c(c1)[C@H]1CCC[C@H]1CN3CCNC2 [Compound A.HCl] 10.7

###

Assay: Ascending multiple dose pharmacokinetics of enteric coated capsules in healthy subjects
Assay type: in vivo, human
Settings: human, plasma, po, 100 mg, healthy subjects, multiple oral doses (q12 h) 100 mg, day 14; read-out: Tmax (Mean)
MEASURE: Tmax (h)
Lab book: enter the figure in h, no units written.

Name the reported Tmax value associated with the molecule Cl.c1cc2c3c(c1)[C@H]1CCC[C@H]1CN3CCNC2 [Compound A.HCl] 5.5
